Catalogue of binders with associated koff
- Assayed target: canine FcRn (FcRn large subunit with canine beta-2-microglobulin) (canine)
- Experiment summary: SPR pH 6.0, IgG coupled to CM5, FcRn 50-800 nM
Assay readout: koff (s⁻¹)

| Binder | Assay readout | Meas value |
| --- | --- | --- |
| canine IgGA antibody, Fc variant A426Y, variable domain of Gearing et al. 2013 (antibody, part only; not given: Variable domains, not shown: another chain or arm of the molecule; small tags and cut ends) Fc: VPEPLGGPSVLIFPPKPKDILRITRTPEVTCVVLDLGREDPEVQISWFVDGKEVHTAKTQSREQQFNGTYRVVSVLPIEHQDWLTGKEFKCRVNHIDLPSPIERTISKARGRAHKPSVYVLPPSPKELSSSDTVSITCLIKDFYPPDIDVEWQSNGQQEPERKHRMTPPQLDEDGSYFLYSKLSVDKSRWQQGDPFTCYVMHETLQNHYTDLSLSHSPGK | koff | 0.0375 |
| anti-NGF canine IgGB antibody, Fc variant N434R + D312P (antibody, part only; not given: anti-NGF variable domains and light chain, not shown: another chain or arm of the molecule) Fc: APEMLGGPSVFIFPPKPKDTLLIARTPEVTCVVVDLDPEDPEVQISWFVDGKQMQTAKTQPREEQFNGTYRVVSVLPIGHQPWLKGKQFTCKVNNKALPSPIERTISKARGQAHQPSVYVLPPSREELSKNTVSLTCLIKDFFPPDIDVEWQSNGQQEPESKYRTTPPQLDEDGSYFLYSKLSVDKSRWQRGDTFICAVMHEALHRHYTQESLSHSPGK | koff | 0.048 |
| anti-NGF canine IgGB antibody, Fc variant A426H + Y436H (antibody, part only; not given: anti-NGF variable domains and light chain, not shown: another chain or arm of the molecule; small tags and cut ends) Fc: APEMLGGPSVFIFPPKPKDTLLIARTPEVTCVVVDLDPEDPEVQISWFVDGKQMQTAKTQPREEQFNGTYRVVSVLPIGHQDWLKGKQFTCKVNNKALPSPIERTISKARGQAHQPSVYVLPPSREELSKNTVSLTCLIKDFFPPDIDVEWQSNGQQEPESKYRTTPPQLDEDGSYFLYSKLSVDKSRWQRGDTFICHVMHEALHNHHTQESLSHSPGK | koff | 0.202 |
